test system: HOP-18; experiment: NCI tumour cell line growth inhibition, 48 h
Activity calls are given as the source filed them. Rule as the data show it: active = GI50 up to about 1.1 µM and inactive = higher.
Pick one and only one: 1.0 = active, 0.0 = inactive

Some entries whose results are on file:
Call for entry COC1=C2CC(C)CC(OC)C(O)C(C)/C=C(\C)C(OC(N)=O)C(OC)/C=C\C=C(/C)C(=O)NC(=C(/C=N/N3CCCCC3)C1=O)C2=O (stereo not given) : 0.0

Hi, sorry to bother you, what did the test record for "O=c1c2cc([N+](=O)[O-])ccc2sc2ccsc12" ? 0.0

Hey, what did the test say about NS(=O)(=O)c1ccc(NC(=O)C2C(=O)C(=O)N(c3ccc(S(N)(=O)=O)cc3)C2=O)cc1 (stereo not given) ? 0.0

So what was the verdict on CCC(C)NC1=C(NC(C)=O)C(=O)c2ccccc2C1=O (stereo not given) in this test? 0.0

Status in this test for "O=C(Cc1nc2ccccc2c(=O)n1-c1c(Cl)cccc1Cl)c1ccncc1" ? 0.0

Others:
Could you please tell me the result logged for Cc1c(CNc2ccc(C(=O)NC(CC(=O)O)C(=O)O)cc2)ccc2nc(N)nc(N)c12 (stereo not given) in this assay? 1.0

Per the assay record, what outcome was assigned to Nc1ncnc2c1ncn2C1C=C(CO)C(O)C1O (stereo not given) ? 0.0

I'd appreciate the recorded outcome for "O=C(/C=C/c1ccccc1Cl)c1ccc(Cl)cc1Cl" from this test. 0.0

Recorded call for "CC(=O)Nc1ccc(/C=C(\NC(=O)c2ccccc2)C(=O)NNS(=O)(=O)c2ccc(C)cc2)cc1" ? 0.0

# lookup: test call for COC(=O)C(CC(=O)c1cc2c(cc1I)OCO2)Cc1cc(OC)c(OC)c(OC)c1I (stereo not given) 0.0

====

Heads up, these molecules all have GI50 values measured for HCT-15.
Report the figure in µM without appending any unit label.

API: value(readout=GI50, system=HCT-15) for record "O=C(/C=C/c1ccccc1Cl)c1ccc(Cl)cc1Cl" 11.7

Record CC(C)C1OC2(C)OC(=N)C1(C#N)C(C#N)(C#N)C2C (stereo unspecified) : what is its GI50 with HCT-15? 12.8

State its GI50 on HCT-15: Nc1ncnc2c1ncn2C1C=C(CO)C(O)C1O (stereo unspecified) 0.468

====

tested on: CCRF-CEM; test: NCI tumour cell line growth inhibition, 48 h
Active and inactive are the calls of the source. Cut-off read from the data, not from the text of the source: active = GI50 up to about 1.1 µM and inactive = higher.
Pick one and only one: True for active, False for inactive

Lab log entry: "COC(=O)c1cccc2c1Oc1ccccc1S2" — outcome as called in the assay? False

I'd appreciate the recorded outcome for "CC1=C(C)CC2(C=C(C(C)(C)C)C(=O)C(C(C)(C)C)=C2)SC1" from this test. False

Further cases:
Per the records of this test, what outcome belongs to COc1ccc2ccccc2c1C1NC(=O)c2ccccc2N1 (configuration not stated) ? True

Field: outcome | Entry: CCCCCCCCC/C=C1\CC(CO)(COC(=O)c2ccccc2)OC1=O (configuration not stated) False

# lookup: test call for O=C(O)C1Cc2[nH]cnc2CN1 (configuration not stated) False

Test call for this molecule, please: "c1ccc([P+](CCC[P+](c2ccccc2)(c2ccccc2)c2ccccc2)(c2ccccc2)c2ccccc2)cc1" False

Could you please tell me the result logged for "CSC(=N/C=C/c1ccccc1)SC" in this assay? False

# lookup: test call for O=C1NC(Cc2ccc(O)cc2)C(=O)NC1Cc1ccc(O)cc1 (configuration not stated) False

What was the test verdict on N/C(=N/O)c1cn(C2OC(CO)C(O)C2O)c2ncnc(NO)c12 (configuration not stated) ? True

Which result was noted for this molecule in the test: "COc1cccc(-c2nc3c(C(=O)NCCN(C)C)cccc3[nH]2)c1" False

Hi team, can someone confirm the assay call for "CC[C@@]12CCC(=S)N(CCSc3ccccc3)[C@@H]1c1c(n(S(=O)(=O)c3ccc(OC)cc3)c3ccccc13)CC2" ? False

Entry "C(=N\c1ccc(-c2nc3ccccc3[nH]2)cc1)/c1ccc[nH]1" : call = ? False

What did this assay record as the result for COc1cc2c(cc1OC)NC(=O)NC(Cc1ccc3c(c1)OCO3)CC2 (configuration not stated) ? False

Look up the recorded call for "O=C(OCCN=C1c2ccccc2CCc2ccccc21)c1ccccc1" in this test. False

What outcome does the record of this test show for "c1ccc(CNc2ccc3[nH]c4cnccc4c3c2)cc1" ? False

Status in this test for "Cc1cc(C)nc(NS(=O)(=O)c2ccc(Nc3c4ccc(Cl)cc4nc4c(C(=O)Nc5ccc(S(=O)(=O)N=C(N)N)cc5)cccc34)cc2)n1" ? False

What classification did CCOC(=O)CCC1(C(=O)OC)CCCC1=O (configuration not stated) end up with in this test? False

Lab log entry: COC1OC(C(C)O)C2OC(C)(C)OC12 (configuration not stated) — outcome as called in the assay? False

Record request — test call for C[C@@H](C(=O)O)c1ccc(-c2ccccc2)c(F)c1 [TARENFLURBIL] False

====

tested on: K562; test: NCI tumour cell line growth inhibition, 48 h
Activity calls are given as the source filed them. No stated cut-off is given here; in the data, active = GI50 up to about 1.1 µM and inactive = higher.
Assign a class; possible classes are active, inactive

// below: answered compounds
How did this test come out for "CCOC(=O)Cc1cc(=O)oc2cc(O)ccc12" ? inactive

Called result for "O=C(Oc1ccc(C(c2c(O)c3ccccc3oc2=O)c2c(O)c3ccccc3oc2=O)cc1)c1ccc(C(=O)c2ccccc2)cc1" inactive

Short answer needed: outcome of this test for "Cc1ccnc(NC(=S)Nc2ccccc2Cl)c1" ? inactive

What classification did "CCOP(=O)(C=C=C(C)C)OCC" end up with in this test? inactive

What is the recorded call for this compound in the test? "COC(=O)CCCN(C)c1nc(N)n[nH]1" inactive

***
For "CCOC(=O)n1ccc2c(C(=O)OC)c(C(=O)OC)cc(/C(=C/C(=O)OC)C(=O)OC)c21" , what call appears in the results of this test? inactive

# fetch the recorded call for "COC(=O)CCCC1(CCCC(=O)OC)CCCCCCCCC(CCCC(=O)OC)(CCCC(=O)OC)C(=O)C1=O" here inactive

What outcome does the record of this test show for "Cc1ccccc1CN1CC2=C(CCN(Cc3ccccc3)C2=O)N2CCN=C12" ? inactive

====

Listing of recorded GI50 by entry.
tested on: SK-OV-3; test: NCI tumour cell line growth inhibition, 48 h
The source made the active and inactive calls. Cut-off read from the data, not from the text of the source: active = GI50 up to about 1.1 µM and inactive = higher.

Record excerpt, results attached:
Quick check: GI50 on SK-OV-3, item O=C1C[C@@]23CCC4(CC2CCC[C@H]3O1)OCCO4 (stereo not given in full) ? > 100 µM (inactive)

Can you look up GI50 on SK-OV-3 for "O=C1O[C@H](c2ccc3c(c2)OCO3)[C@H]2CO[C@@H](c3ccc4c(c3)OCO4)[C@@H]12" ? > 100 µM (inactive)

Form entry - test system: SK-OV-3; read-out: GI50; compound: "O=C(Cn1ccnc1[N+](=O)[O-])N(CCO)CCO" > 250 µM (inactive)

New cases:
// fetch SK-OV-3 GI50 for "O=S(=O)(O)c1cc(O)c2c(O)c(/N=N/c3ccc(/C=C/c4ccc(/N=N/c5c(S(=O)(=O)O)cc6cc(S(=O)(=O)O)cc(O)c6c5O)cc4S(=O)(=O)O)c(S(=O)(=O)O)c3)c(S(=O)(=O)O)cc2c1" > 100 µM (inactive)

Query GI50 on SK-OV-3 for Cc1cc(Cl)ccc1NC(=O)CCCC(=O)C1CCCC1=O (stereo not given) > 100 µM (inactive)

So what GI50 did O=C(O)C1Cc2[nH]cnc2CN1 (stereo not given) get with SK-OV-3? > 100 µM (inactive)

Provide value of GI50 for this record tested with SK-OV-3: Cc1ccc(C)c(NC(=O)C(=O)CC(=O)C2CCOC2=O)c1 (stereo not given) > 100 µM (inactive)

Kindly state the measured GI50 obtained for "Cc1ccccc1CN1CC2=C(CCN(Cc3ccccc3)C2=O)N2CCN=C12" with SK-OV-3. 7.78 µM (inactive)

Missing value: GI50, SK-OV-3, entry "COC(=O)CC(=O)OSc1ccccc1" . Fill in? 21.1 µM (inactive)

Requested read-out GI50, target or system SK-OV-3, entry "Nc1ccc(N)c2c1C(=O)c1ccccc1C2=O" 2.49 µM (inactive)

====

test system: NCI-H522; assay: NCI tumour cell line growth inhibition, 48 h
Activity calls are given as the source filed them. No stated cut-off is given here; in the data, active = GI50 up to about 1.1 µM and inactive = higher.
GI50 by entry:

// worked examples, GI50 included
Value lookup for GI50; key = "O=C(Oc1ccc(C(c2c(O)c3ccccc3oc2=O)c2c(O)c3ccccc3oc2=O)cc1)c1ccc(C(=O)c2ccccc2)cc1" 15.4 µM (inactive)

Entry "CCOC(=O)/C(=C/c1ccc(C(F)(F)F)cc1)N(CC)CC" : reported GI50 = ? 31.6 µM (inactive)

What value of measured GI50 is listed for NC(CCC(=O)O)C(=O)NC(Cc1ccc(N(CCCl)CCCl)cc1)C(=O)O (centres undefined) ? > 100 µM (inactive)

Param item = COc1cc(C2C(Cl)C(=O)N2NC(=O)c2ccc(NC(C)=O)cc2)cc(Br)c1O (centres undefined) ; retrieve measured GI50. > 100 µM (inactive)

***
Look at this molecule and give its reported GI50. CC(O)=NC(Cc1ccc2ccccc2c1)C(O)=NC(Cc1ccc(Cl)cc1)C(O)=NC(Cc1c[nH]c2ccccc12)C(O)=NC(CO)C(O)=NC(Cc1ccc(O)cc1)C(O)=NC(CCCN=C(N)N)C(O)=NC(CC(C)C)C(O)=NC(CCCN=C(N)N)C(=O)N1CCCC1C(O)=NC(C)C(=N)O (centres undefined) 45.9 µM (inactive)

Which GI50 is reported for this molecule? "COc1cccc(C=C2N=C(C)N(n3c(-c4ccccc4)nc4ccccc4c3=O)C2=O)c1" > 100 µM (inactive)

Endpoint output: GI50 of "CN(C)/C=C/c1nnnn1-c1ccc(I)cc1" . Value? 25.5 µM (inactive)

Requested read-out: GI50. Entry: "CN1CCCN(C)CCCN(C)CCCN(C)CCC1" > 100 µM (inactive)

Would you kindly share the measured GI50 for O=C(O)CC(O)(C(=O)O)C(O)C(=O)O (centres undefined) ? > 1000 µM (inactive)
